- Test system: Malme-3M
- method description: NCI tumour cell line growth inhibition, 48 h
Active and inactive are the calls of the source. Rule as the data show it: active = GI50 up to about 1.1 µM and inactive = higher.
Some molecules, each annotated with its measured GI50.

molecule | GI50
CC1(C)[C@H](C(=O)O)N2C(=O)[C@@H](NS(=O)(=O)c3ccc([N+](=O)[O-])cc3)[C@H]2S1(=O)=O | > 100 µM (inactive)
O=C1/C(=C/c2ccc([N+](=O)[O-])cc2)Sc2scc(-c3cccc([N+](=O)[O-])c3)[n+]21 | 1.33 µM (inactive)
COCC1OC(N2C(=O)NC(=O)[C@@H]3C=C4CCCCC4=C[C@@H]32)C(OC)C1OC (some centres undefined) | > 100 µM (inactive)
N#Cc1c(-c2ccc(Cl)cc2)c(C#N)c(=O)n(NS(=O)(=O)c2ccccc2)c1O | 49 µM (inactive)
O=C1C(Br)=C(Br)C(=O)c2ccc(=O)ccc21 | 19.9 µM (inactive)
C=C(CCOC)CCC1CCCCC/C1=N\N(C)C (centres undefined) | > 100 µM (inactive)
CN(C(=O)Cc1ccccc1)n1cn[n+](CC(=O)OC(C)(C)C)c1 | > 10 µM (inactive)
COc1ccc2c(c1)[n+]([O-])c(C(C)=O)c(C)[n+]2[O-] | > 100 µM (inactive)
O=C(CCC(NC(=O)OCc1ccccc1)C(=O)OCc1ccccc1)Nc1cccc(OCc2ccccc2)c1 (centres undefined) | 14.5 µM (inactive)
